Listing: Cell viability (% of control) of selected compounds
tested on: Vero cells; test: Cytotoxicity, Vero cells, Alamar Blue; format: cell-based; details: 25 μM, 20 hours

# compound, Cell viability (% of control)
measured = [
    ("CCCCc1ccc(C(=O)Nc2ccc3nc(NC(C)(C)C(=O)N(C)CCc4ccccn4)oc(=O)c3c2C)cc1 [Compound No.167]", "−6.1%"),
    ("Cc1c(NC(=O)OC(C)(C)C)ccc2nc(N3CCC[C@H]3C(=O)N(C)CCc3ccncc3)oc(=O)c12 [Compound No.93]", "82.4%"),
    ("COCC(=O)Nc1ccc2nc(NC(C)(C)C(=O)N(C)CCc3ccccn3)oc(=O)c2c1C [Compound No.137]", "98.2%"),
    ("Cc1c(NC(=O)OC(C)(C)C)ccc2nc(NC(C)(C)C(=O)N(C)CCc3ccccn3)oc(=O)c12 [Compound No.18]", "101.0%"),
    ("Cc1c(NC(=O)c2ccc(F)cc2)ccc2nc(NC(C)(C)C(=O)N(C)CCc3ccccn3)oc(=O)c12 [Compound No.149]", "65.4%"),
    ("Cc1c(NC(=O)OC(C)(C)C)ccc2nc(N[C@H](C(=O)NCc3ccccn3)C(C)(C)C)oc(=O)c12 [Compound No.32]", "111.0%"),
    ("Cc1c(NC(=O)OC(C)(C)C)ccc2nc(N3CCCC[C@H]3C(=O)N(C)CCc3ccccn3)oc(=O)c12 [Compound No.106]", "53.3%"),
    ("Cc1c(NC(=O)OC(C)(C)C)ccc2nc(N[C@@H](CC3CCCCC3)C(=O)N(C)Cc3ccccn3)oc(=O)c12 [Compound No.63]", "60.1%"),
    ("COc1ccccc1C(=O)Nc1ccc2nc(NC(C)(C)C(=O)N(C)CCc3ccccn3)oc(=O)c2c1C [Compound No.161]", "44.1%"),
    ("Cc1c(NC(=O)OC(C)(C)C)ccc2nc(N3C[C@H](OCc4ccccc4)C[C@H]3C(=O)N(C)Cc3ccccn3)oc(=O)c12 [Compound No.113]", "71.7%"),
    ("Cc1c(NC(=O)OC(C)(C)C)ccc2nc(N[C@@H](CCc3ccccc3)C(=O)N(C)CCc3ccncc3)oc(=O)c12 [Compound No.56]", "77.9%"),
    ("Cc1c(NC(=O)OC(C)(C)C)ccc2nc(N(C)[C@@H](C)C(=O)NCc3ccncc3)oc(=O)c12 [Compound No.73]", "79.8%"),
    ("Cc1c(NC(=O)OC(C)(C)C)ccc2nc(N3Cc4ccccc4C[C@H]3C(=O)N(C)Cc3ccccn3)oc(=O)c12 [Compound No.98]", "46.2%"),
    ("Cc1c(NC(=O)OC(C)(C)C)ccc2nc(N[C@@H](CC(C)C)C(=O)N(C)CCc3cccnc3)oc(=O)c12 [Compound No.68]", "66.9%"),
]
